experiment: GDC-0810 mouse pharmacokinetics; settings: plasma, po, 100 mg/kg/day
Metric Name: Tmax (h)
Numbers only, in h.

(Q) Name the reported Tmax value associated with the compound CC/C(=C(/c1ccc(/C=C/C(=O)O)cc1)c1ccc2[nH]ncc2c1)c1ccc(F)cc1Cl [GDC-0810]
(A) 8

====

system: Doxycycline-inducible MCF7 cells (Vector); assay: Cell viability, doxycycline-inducible MCF7 cells, vector control; format: cell-based; conditions: Homo sapiens, MCF7, 168 h; 7 days, 0.1 nM E2, 10 ng/ml doxycycline
Metric Name: pIC50
Answers are plain numbers, as −log10 of the molar value.

Please give pIC50, item by item, for the list that follows.
1. C[C@]12CC[C@@H]3c4ccc(O)cc4C[C@@H](CCCCCCCCC[S+]([O-])CCCC(F)(F)C(F)(F)F)[C@H]3[C@@H]1CC[C@@H]2O (some centres unmarked)
2. CC/C(=C(/c1ccc(/C=C/C(=O)O)cc1)c1ccc2[nH]ncc2c1)c1ccc(F)cc1Cl

(A)
1. 8.14
2. 7.82

====

Molecular target: GR (Homo sapiens)
Sequence (P04150 1-777): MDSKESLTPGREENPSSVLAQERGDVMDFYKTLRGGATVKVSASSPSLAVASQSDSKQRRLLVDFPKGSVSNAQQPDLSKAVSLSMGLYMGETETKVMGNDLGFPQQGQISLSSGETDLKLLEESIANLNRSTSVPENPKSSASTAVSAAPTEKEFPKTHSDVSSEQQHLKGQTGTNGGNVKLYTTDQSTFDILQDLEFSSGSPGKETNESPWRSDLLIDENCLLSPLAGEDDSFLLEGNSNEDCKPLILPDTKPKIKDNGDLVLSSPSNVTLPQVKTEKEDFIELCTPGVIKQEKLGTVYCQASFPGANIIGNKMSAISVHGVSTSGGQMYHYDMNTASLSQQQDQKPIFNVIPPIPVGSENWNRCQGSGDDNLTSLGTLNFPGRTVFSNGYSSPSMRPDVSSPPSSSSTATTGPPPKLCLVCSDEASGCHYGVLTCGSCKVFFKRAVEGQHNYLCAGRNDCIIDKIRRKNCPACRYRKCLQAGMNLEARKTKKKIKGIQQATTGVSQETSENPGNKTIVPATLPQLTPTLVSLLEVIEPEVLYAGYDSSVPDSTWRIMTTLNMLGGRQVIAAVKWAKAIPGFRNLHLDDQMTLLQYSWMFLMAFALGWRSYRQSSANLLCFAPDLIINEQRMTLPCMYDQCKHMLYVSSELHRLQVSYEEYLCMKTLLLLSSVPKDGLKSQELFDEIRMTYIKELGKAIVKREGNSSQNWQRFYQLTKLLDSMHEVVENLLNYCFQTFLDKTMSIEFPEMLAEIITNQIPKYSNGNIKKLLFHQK
Experiment: GR transcriptional reporter assay, antagonist mode (CV1 cells)
Format: cell-based
Method: CV1 cells were maintained in MEM supplemented with 10% FBS. Transcriptional assays were performed by seeding 12 mL of cells at a density of 250,000 cells/mL into a T-75 cell culture flask in MEM supplemented with 5% charcoal-stripped serum and allowed to attach overnight. Cells were transiently transfected using FuGENE 6 (Roche Applied Science). […] Transfected cells were incubated overnight then split into four 96-well tissue culture plates and incubated for 4 hr followed by compound addition. […]
Metric Name: IC50
Reply with the number and its unit after it.

(Q) Name the reported IC50 value associated with the compound CC/C(=C(\c1ccc(O)cc1)c1ccc(OCCN(C)C)cc1)c1ccccc1 [4-OH Tam, 4-hydroxytamoxifen]
(A) 1470 nM

Just for reference, paper PMC4961458 is where these values come from.
